assay system: BRG-1 (Homo sapiens, UniProt P51532)
Sequence (P51532 whole entry): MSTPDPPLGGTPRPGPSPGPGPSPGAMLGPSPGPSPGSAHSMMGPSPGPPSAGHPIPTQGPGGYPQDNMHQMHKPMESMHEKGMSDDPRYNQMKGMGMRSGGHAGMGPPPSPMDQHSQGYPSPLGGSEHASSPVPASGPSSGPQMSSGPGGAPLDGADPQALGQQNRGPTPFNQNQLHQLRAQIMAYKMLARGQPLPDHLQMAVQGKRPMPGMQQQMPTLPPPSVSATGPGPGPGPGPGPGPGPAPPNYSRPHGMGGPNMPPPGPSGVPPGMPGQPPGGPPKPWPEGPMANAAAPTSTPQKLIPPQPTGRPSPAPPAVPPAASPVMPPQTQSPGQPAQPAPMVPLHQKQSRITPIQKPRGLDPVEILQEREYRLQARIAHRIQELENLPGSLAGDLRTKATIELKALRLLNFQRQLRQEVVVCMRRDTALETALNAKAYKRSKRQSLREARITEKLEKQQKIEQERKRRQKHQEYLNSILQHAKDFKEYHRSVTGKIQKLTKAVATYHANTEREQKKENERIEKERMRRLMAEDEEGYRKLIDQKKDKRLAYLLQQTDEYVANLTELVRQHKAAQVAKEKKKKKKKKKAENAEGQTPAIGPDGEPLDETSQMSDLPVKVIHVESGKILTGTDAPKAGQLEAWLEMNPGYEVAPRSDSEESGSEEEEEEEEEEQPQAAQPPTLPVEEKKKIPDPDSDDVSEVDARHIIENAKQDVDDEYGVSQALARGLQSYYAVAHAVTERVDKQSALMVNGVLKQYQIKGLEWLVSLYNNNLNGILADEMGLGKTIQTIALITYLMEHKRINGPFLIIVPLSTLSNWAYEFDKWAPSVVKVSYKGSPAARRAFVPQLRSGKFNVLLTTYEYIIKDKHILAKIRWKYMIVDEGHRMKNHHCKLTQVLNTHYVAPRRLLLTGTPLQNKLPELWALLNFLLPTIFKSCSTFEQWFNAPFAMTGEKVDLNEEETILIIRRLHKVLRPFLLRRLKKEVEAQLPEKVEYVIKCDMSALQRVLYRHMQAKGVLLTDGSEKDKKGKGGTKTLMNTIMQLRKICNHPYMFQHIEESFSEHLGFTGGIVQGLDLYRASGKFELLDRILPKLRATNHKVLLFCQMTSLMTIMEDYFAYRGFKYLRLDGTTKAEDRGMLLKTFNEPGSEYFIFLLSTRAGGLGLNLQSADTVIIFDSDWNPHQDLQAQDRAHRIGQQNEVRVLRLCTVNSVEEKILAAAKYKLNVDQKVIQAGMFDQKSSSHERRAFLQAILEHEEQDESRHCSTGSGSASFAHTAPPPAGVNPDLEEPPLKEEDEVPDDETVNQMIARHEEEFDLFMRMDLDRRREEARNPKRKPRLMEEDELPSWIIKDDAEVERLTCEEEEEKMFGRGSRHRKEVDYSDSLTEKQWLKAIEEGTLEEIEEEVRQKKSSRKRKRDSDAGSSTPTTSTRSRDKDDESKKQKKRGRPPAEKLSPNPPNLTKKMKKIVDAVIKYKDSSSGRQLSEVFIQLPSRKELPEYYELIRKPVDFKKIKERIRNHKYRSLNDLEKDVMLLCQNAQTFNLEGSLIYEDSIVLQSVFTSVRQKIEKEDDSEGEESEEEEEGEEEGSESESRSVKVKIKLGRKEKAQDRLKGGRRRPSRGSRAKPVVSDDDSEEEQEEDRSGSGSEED
assay procedure: ATPase catalytic activity assay (ADP-Glo), BRG-1
pIC50: −log10 of the molar value.
Assignment: determine reported pIC50 for the given compounds.

Would you please look over these solved cases?
Record C[C@@]1(C#N)COCc2ccc(C(=O)NCc3nccc(C#Cc4ccccc4)c3F)cc21 , field pIC50: < 6.00

For record C[C@@]1(C#N)COCc2ccc(C(=O)NCc3cc4nc(-c5cc(F)cc(N6CCC6)c5)ccc4cn3)cc21 the listed pIC50 is 6.30 to 7.00

// pIC50 lookup, compound = CN1CCC(NC(=O)c2cccc(-c3ccc4cnc(CNC(=O)c5ccc6c(c5)[C@](C)(C#N)COC6)cc4n3)c2)CC1 , result: < 6.00

Parameters: items (list). Returns: pIC50 for each item.
1. COCCOCCC(=O)N1CCN(c2cccc(-c3ccc4cnc(CNC(=O)c5ccc6c(c5)[C@](C)(C#N)COC6)cc4n3)n2)CC1
2. C[C@@]1(C#N)COCc2ncc(C(=O)NCc3cc4nc(-c5cccc(N6CCC6)n5)ccc4cn3)cc21
3. C[C@@]1(C#N)COCc2ccc(C(=O)NCc3cc4c(cn3)CCN(c3ccccc3)C4)cc21
4. C[C@@]1(C#N)COCc2ccc(C(=O)NCc3cc(N4CCc5ccccc5CC4)ccn3)cc21

6.30 to 7.00
6.30 to 7.00
< 6.00
< 6.00

----------
assay system: UniProtKB P51532
assay procedure: ATPase catalytic activity assay (ADP-Glo), BRG-1
condition context: 1 h, read-out: BRG1 Max % Inhibition, ADP-Glo, 30 nM BRG-1, 400 μM ATP
What Emax was measured for each of the following?
Give bare numbers, in %.

Looking up COc1cc(-c2ccc3cnc(CNC(=O)c4ccc5c(c4)[C@](C)(C#N)COC5)cc3n2)ccn1 , I see its Emax listed as 80

Give measured Emax for every item shown.
1. C[C@@]1(C#N)COCc2ccc(C(=O)NCc3cc4nc(-c5cncc(N6CC(F)(F)C6)n5)ccc4cn3)cc21
2. C[C@@]1(C#N)COCc2ccc(C(=O)NCc3cc4nc(N5Cc6ccccc6C5=O)ccc4cn3)cc21
3. C[C@@]1(F)COCc2ccc(C(=O)NCc3cc4nc(N5CCN(C6CC6)S5(=O)=O)ccc4cn3)cc21
4. C[C@@]1(C#N)COCc2ccc(C(=O)NCc3ncc4ccc(-c5cncc(C6CC6)n5)nc4c3F)cc21
5. COc1cc(Cl)ccc1-c1ccc2cnc(CNC(=O)c3ccc4c(c3)[C@](C)(C#N)COC4)cc2n1
6. COc1nn(C2COC2)cc1-c1ccc2cnc(CNC(=O)c3ccc4c(c3)[C@](C)(F)COC4)cc2n1
7. C[C@@]1(C#N)COCc2ccc(C(=O)NCc3cc4cc(-c5ccccc5)cnc4cn3)cc21
8. C[C@@H](NC(=O)c1ccc2c(c1)[C@](C)(C#N)COC2)c1cc2nc(-c3ccccc3)ccc2cn1

1. 78
2. 87
3. 67
4. 90
5. 97
6. 76
7. 79
8. 73

Look up Emax for the entries below, preserving their order.
1. C[C@@]1(C#N)COCc2ccc(C(=O)NCc3cc4cc(-c5ccnc(C6CC6)c5F)cnc4cn3)cc21
2. COCCn1c(C)cc2c(-c3ccc4cnc(CNC(=O)c5ccc6c(c5)[C@](C)(C#N)COC6)cc4n3)cccc21
3. C[C@@]1(F)COCc2ccc(C(=O)NCc3cc4nc(-c5ccnc(C6CC6)n5)cnc4cn3)cc21

82
98
76
